- TARGET ENTITY: Adenosine receptors; A1 & A2a (Homo sapiens) (UniProt P30542+P29274)
- MEASUREMENT NOTES: Selectivity for human adenosine A1 receptor over adenosine A2A receptor
- Type: protein assay
MEASURED QUANTITY: Ratio Ki

INSERT INTO measurements (compound_structure, quantitative_result) VALUES
  ('CCCN1C(=O)N2C[C@@H](CC)N=C2c2[nH]c(C34CCC(O)(CC3)CC4)nc21', 200);

1 = CCCN1C(=O)N2C[C@@H](C(C)C)N=C2c2[nH]c(C34CCC(O)(CC3)CC4)nc21
2 = CCCn1c(=O)c2nc(C34CCC(O)(CC3)CC4)[nH]c2n(CCC)c1=O
3 = CCCN1C(=O)N2C[C@@H](C(C)C)N=C2c2[nH]c(C34CCC(CCC(=O)O)(CC3)CC4)nc21
Number of compounds to sort: 3. Sort criterion: Ratio Ki, ascending. Answer format: the labels, in the requested order.
1, 2, 3

###

- TARGET ENTITY: Adenosine receptors; A1 & A2b (Homo sapiens) (UniProt P30542+P29275)
- MEASUREMENT NOTES: Selectivity for human adenosine A1 receptor over adenosine A2B receptor
- Type: protein assay
MEASURED QUANTITY: Ratio Ki

Recorded results for 3 compounds are shown here.
INSERT INTO results (compound_structure, quantitative_result) VALUES
  ('CCCN1C(=O)N2C[C@@H](CC)N=C2c2[nH]c(C34CCC(CCC(=O)O)(CC3)CC4)nc21', 54),
  ('CCCN1C(=O)N2C[C@@H](CC)N=C2c2[nH]c(C34CCC(O)(CC3)CC4)nc21', 26),
  ('CCCN1C(=O)N2C[C@@H](C(C)C)N=C2c2[nH]c(C34CCC(CCC(=O)O)(CC3)CC4)nc21', 69);

A = CCCN1C(=O)N2C[C@@H](C(C)C)N=C2c2[nH]c(C34CCC(O)(CC3)CC4)nc21
B = CCCN1C(=O)N2C[C@@H](C)N=C2c2[nH]c(C34CCC(O)(CC3)CC4)nc21
C = CCCn1c(=O)c2nc(C34CCC(O)(CC3)CC4)[nH]c2n(CCC)c1=O
Number of compounds to sort: 3. Sort criterion: Ratio Ki, ascending. Answer format: the labels, in the requested order.
B, A, C
(B: 37, A: 57, C: 215)

###

- MEASUREMENT NOTES: Oral bioavailability in rat at 1 mg/kg, iv and po
- Assay type: ADME, organism-based
- CONDITION NOTES: in vivo
MEASURED QUANTITY: bioavailability (%)

Recorded results for 2 compounds are shown here.
INSERT INTO assay_data (compound_structure, quantitative_result) VALUES
  ('CCCn1c(=O)c2nc(C34CCC(CCC(=O)O)(CC3)CC4)[nH]c2n(CCC)c1=O.Cl', 99),
  ('CCCN1C(=O)N2C[C@@H](C(C)C)N=C2c2[nH]c(C34CCC(CCC(=O)O)(CC3)CC4)nc21.Cl', 77);

I = CCCN1C(=O)N2C[C@@H](C(C)C)N=C2c2[nH]c(C34CCC(O)(CC3)CC4)nc21.Cl
II = CCCN1C(=O)N2C[C@@H](CC)N=C2c2[nH]c(C34CCC(O)(CC3)CC4)nc21.Cl
In terms of reported bioavailability, does I or II have the smaller number? Refer to your chosen item by its label in the answer.
I
(I: 54%, II: 84%)
